Origin of values: patent US7205403B2

Biological target: human A1 adenosine receptor (Homo sapiens, UniProt P30542)
Construct: expressed in transfected cells; host or cells: CHO cells (membranes)
Sequence (P30542 1-326): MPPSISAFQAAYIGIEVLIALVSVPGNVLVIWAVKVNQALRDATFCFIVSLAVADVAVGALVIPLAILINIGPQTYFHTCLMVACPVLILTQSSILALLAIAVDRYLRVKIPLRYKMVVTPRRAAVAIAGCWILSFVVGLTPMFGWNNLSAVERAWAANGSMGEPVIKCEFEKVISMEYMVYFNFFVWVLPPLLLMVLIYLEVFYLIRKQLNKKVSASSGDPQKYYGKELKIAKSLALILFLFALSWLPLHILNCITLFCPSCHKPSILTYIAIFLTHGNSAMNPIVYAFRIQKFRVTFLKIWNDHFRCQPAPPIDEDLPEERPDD
Test: [3H]DPCPX binding to human A1 receptors expressed in CHO cells
Details: geometric mean (95% confidence interval); >1000 = no appreciable binding

- Compound: "CCCn1c(=O)c2[nH]c(-c3cc(NC(=O)Cc4ccc(OCc5cccc(C(F)(F)F)c5)cc4)nn3C)nc2n(CCC)c1=O [AS30]"
  Ki: "100 nM"
- Compound: "CCCn1c(=O)c2[nH]c(-c3cc(NC(=O)Cc4ccccc4)nn3C)nc2n(CCC)c1=O [AS11]"
  Ki: "900 nM"
- Compound: "CCCn1c(=O)c2nc(-c3cc(OCC(=O)Nc4ccc(Br)cc4)n(C)n3)[nH]c2n(CCC)c1=O [AS60]"
  Ki: "168 nM"
- Compound: "CCCn1c(=O)c2[nH]c(-c3cc(OCC(=O)Nc4ccc(C)cc4)nn3C)nc2n(CCC)c1=O [AS59]"
  Ki: "> 1000 nM"
- Compound: "CC(C)Cn1c(=O)c2nc(-c3cc(OCC(=O)Nc4ccc(F)cc4)nn3C)[nH]c2n(CC(C)C)c1=O [AS66]"
  Ki: "467 nM"
- Compound: "CCCn1c(=O)c2[nH]c(-c3cc(NC(=O)Cc4cccc(F)c4)nn3C)nc2n(CCC)c1=O [AS25]"
  Ki: "3230 nM"
- Compound: "CCCn1c(=O)c2[nH]c(-c3cc(N)nn3C)nc2n(CCC)c1=O [AS3]"
  Ki: "201 nM"
- Compound: "CCCn1c(=O)c2[nH]c(-c3cc(N)n(C)n3)nc2n(CCC)c1=O [AS37]"
  Ki: "140 nM"
- Compound: "CCCn1c(=O)c2[nH]c(-c3cc(OCC(=O)Nc4ccncc4)nn3C)nc2n(CCC)c1=O [AS89]"
  Ki: "955 nM"
- Compound: "CCCn1c(=O)c2[nH]c(-c3cc(NC(=O)Cc4ccc(OCc5ccc([N+](=O)[O-])cc5)cc4)nn3C)nc2n(CCC)c1=O [AS31]"
  Ki: "163 nM"
- Compound: "CCCn1c(=O)c2[nH]c(-c3cc(OCC(=O)Nc4ccc(Cl)c(Cl)c4)nn3C)nc2n(CCC)c1=O [AS100]"
  Ki: "300 nM"
- Compound: "CCCn1c(=O)c2[nH]c(-c3cc(NC(=O)CCCN)nn3C)nc2n(CCC)c1=O [AS10]"
  Ki: "548 nM"
- Compound: "CCCn1c(=O)c2[nH]c(-c3cc(NC(=O)Cc4ccc(C(F)(F)F)cc4)nn3C)nc2n(CCC)c1=O [AS32]"
  Ki: "746 nM"
- Compound: "CC(C)Cn1c(=O)c2[nH]c(-c3cc(OCC(=O)Nc4ccc(Br)cc4)n(C)n3)nc2n(CC(C)C)c1=O [AS63]"
  Ki: "49 nM"
- Compound: "CC(C)Cn1c(=O)c2[nH]c(-c3cc(OCC(=O)Nc4ccc(F)cc4)n(C)n3)nc2n(CC(C)C)c1=O [AS62]"
  Ki: "72 nM"
- Compound: "CCCn1c(=O)c2[nH]c(-c3cc(NC(=O)Cc4ccc(OCc5ccccc5C(F)(F)F)cc4)nn3C)nc2n(CCC)c1=O [AS29]"
  Ki: "56 nM"

* * *

Biological target: human A2A adenosine receptor (Homo sapiens)
Construct: expressed in transfected cells; host or cells: CHO cells (membranes)
Sequence (P29274 whole entry): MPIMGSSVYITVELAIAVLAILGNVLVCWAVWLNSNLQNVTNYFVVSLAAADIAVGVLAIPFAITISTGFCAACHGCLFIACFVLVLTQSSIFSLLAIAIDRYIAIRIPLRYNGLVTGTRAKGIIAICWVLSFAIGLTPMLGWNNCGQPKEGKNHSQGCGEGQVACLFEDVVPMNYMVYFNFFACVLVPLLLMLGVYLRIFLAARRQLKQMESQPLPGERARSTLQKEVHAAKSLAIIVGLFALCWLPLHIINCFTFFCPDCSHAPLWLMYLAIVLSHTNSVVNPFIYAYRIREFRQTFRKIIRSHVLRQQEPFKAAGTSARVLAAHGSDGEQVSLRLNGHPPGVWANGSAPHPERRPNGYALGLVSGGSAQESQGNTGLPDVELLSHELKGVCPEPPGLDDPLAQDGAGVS
Assay: [3H]ZM241385 binding to human A2A receptors expressed in CHO cells
Conditions: geometric mean (95% confidence interval); >1000 = no appreciable binding; read-out: Ki, [3H]ZM241385 binding to human A2A receptors expressed in CHO cells
Assay Metric: Ki

- Chem Smiles: "CCCn1c(=O)c2[nH]c(-c3cc(OCC(=O)Nc4ccc(C)cc4)nn3C)nc2n(CCC)c1=O"
  Measurement Target: "human A2A adenosine receptor (Homo sapiens)"
  Result: "> 1000 nM"

* * *

Target: human A2B adenosine receptor (Homo sapiens)
Sequence (P29275 whole entry): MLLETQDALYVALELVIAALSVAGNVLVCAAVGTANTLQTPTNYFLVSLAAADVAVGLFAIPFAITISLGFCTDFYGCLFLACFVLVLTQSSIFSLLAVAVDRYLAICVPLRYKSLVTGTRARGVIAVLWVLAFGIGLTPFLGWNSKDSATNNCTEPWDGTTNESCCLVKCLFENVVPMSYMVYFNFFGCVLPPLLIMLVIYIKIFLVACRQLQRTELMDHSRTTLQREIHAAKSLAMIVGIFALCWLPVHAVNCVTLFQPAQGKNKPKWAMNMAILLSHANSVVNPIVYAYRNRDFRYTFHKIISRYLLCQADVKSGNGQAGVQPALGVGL
Assay: [3H]DPCPX binding to human A2B receptors expressed in HEK293 cells
Parameters: host or cells: HEK 293 cells (membranes)
Details: Table 2; geometric mean (95% confidence limits), at least three experiments in duplicate; read-out: [3H]-DPCPX binding to human A2B receptors in HEK 293 cells Ki
The following compounds are shown together with reported Ki values.

- Compound: "CCCn1c(=O)c2[nH]c(-c3cc(NC(=O)Cc4ccc(OC)c(OC)c4)nn3C)nc2n(CCC)c1=O [AS28]"
  Measurement Target: "human A2B adenosine receptor (Homo sapiens)"
  Units Label: "nM"
  Ki: 38
- Compound: "CCCn1c(=O)c2[nH]c(-c3cc(NC(=O)Cc4ccccc4)nn3C)nc2n(CCC)c1=O [AS11]"
  Measurement Target: "human A2B adenosine receptor (Homo sapiens)"
  Units Label: "nM"
  Ki: 35
- Compound: "CCCn1c(=O)c2[nH]c(-c3cc(OCC(=O)Nc4ccc(Br)cc4)nn3C)nc2n(CCC)c1=O [AS65]"
  Measurement Target: "human A2B adenosine receptor (Homo sapiens)"
  Units Label: "nM"
  Ki: 20
- Compound: "CCCn1c(=O)c2[nH]c(-c3cc(NC(=O)Cc4ccc(Cl)cc4)nn3C)nc2n(CCC)c1=O [AS27]"
  Measurement Target: "human A2B adenosine receptor (Homo sapiens)"
  Units Label: "nM"
  Ki: 28
- Compound: "CCCn1c(=O)c2[nH]c(-c3cc(NC(=O)Nc4cccc(Cl)c4)nn3C)nc2n(CCC)c1=O [AS54]"
  Measurement Target: "human A2B adenosine receptor (Homo sapiens)"
  Units Label: "nM"
  Ki: 39
- Compound: "CCCn1c(=O)c2[nH]c(-c3cc(NC(=O)Cc4ccccc4)n(C)n3)nc2n(CCC)c1=O [AS35]"
  Measurement Target: "human A2B adenosine receptor (Homo sapiens)"
  Units Label: "nM"
  Ki: 34
- Compound: "CCCn1c(=O)c2[nH]c(-c3cc(NC(=O)Cc4ccc(OCc5ccccc5C(F)(F)F)cc4)nn3C)nc2n(CCC)c1=O [AS29]"
  Measurement Target: "human A2B adenosine receptor (Homo sapiens)"
  Units Label: "nM"
  Ki: 13
- Compound: "CCCn1c(=O)c2[nH]c(-c3cc(NC(=O)Cc4ccc5c(c4)OCO5)nn3C)nc2n(CCC)c1=O [AS57]"
  Measurement Target: "human A2B adenosine receptor (Homo sapiens)"
  Units Label: "nM"
  Ki: 18

* * *

Target: human A2B adenosine receptor (Homo sapiens)
Experiment: Cyclic AMP assay, antagonism of NECA-stimulated cAMP in CHO cells transfected with human A2B receptors
Format: cell-based
Assay Metric: IC50 (nM)

- Chem Smiles: "CCCn1c(=O)c2[nH]c(-c3cc(NC(=O)Nc4cccc(Cl)c4)nn3C)nc2n(CCC)c1=O"
  Assay Metric: "IC50"
  Units Label: "nM"
  Quantitative Readout: 136

* * *

Biological target: human A3 adenosine receptor (Homo sapiens, UniProt P0DMS8)
Construct: expressed in transfected cells; host or cells: CHO cells (membranes)
Sequence (P0DMS8 1-318): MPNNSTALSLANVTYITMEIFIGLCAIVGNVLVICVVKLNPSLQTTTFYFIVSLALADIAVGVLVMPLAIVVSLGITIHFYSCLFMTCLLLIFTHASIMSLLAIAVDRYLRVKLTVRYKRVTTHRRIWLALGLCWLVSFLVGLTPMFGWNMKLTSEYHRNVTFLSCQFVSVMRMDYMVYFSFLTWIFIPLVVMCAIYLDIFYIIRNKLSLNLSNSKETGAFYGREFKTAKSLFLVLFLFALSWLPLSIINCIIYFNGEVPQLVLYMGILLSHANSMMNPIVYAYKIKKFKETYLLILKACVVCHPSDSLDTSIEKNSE
Experiment: [3H]MRE3008F20 binding to human A3 receptors expressed in CHO cells

- Compound: "CCCn1c(=O)c2[nH]c(-c3cc(OCC(=O)Nc4ccc(OC)c(OC)c4)nn3C)nc2n(CCC)c1=O [AS101]"
  Measurement Target: "human A3 adenosine receptor (Homo sapiens, UniProt P0DMS8)"
  Ki: "> 1000 nM"
- Compound: "CCCn1c(=O)c2[nH]c(-c3cc(NC(=O)COc4ccc(Cl)cc4Cl)nn3C)nc2n(CCC)c1=O [AS12]"
  Measurement Target: "human A3 adenosine receptor (Homo sapiens, UniProt P0DMS8)"
  Ki: "> 1000 nM"
- Compound: "CCCn1c(=O)c2[nH]c(-c3cc(NC(=O)CCCNC(=O)OC(C)(C)C)nn3C)nc2n(CCC)c1=O [AS9]"
  Measurement Target: "human A3 adenosine receptor (Homo sapiens, UniProt P0DMS8)"
  Ki: "> 1000 nM"
- Compound: "CCCn1c(=O)c2[nH]c(-c3ccc(O)nc3)nc2n(CCC)c1=O [AS103]"
  Measurement Target: "human A3 adenosine receptor (Homo sapiens, UniProt P0DMS8)"
  Ki: "116 nM"
- Compound: "CCCn1c(=O)c2[nH]c(-c3cc(NC(=O)Cc4ccc(OCc5ccc([N+](=O)[O-])cc5)cc4)nn3C)nc2n(CCC)c1=O [AS31]"
  Measurement Target: "human A3 adenosine receptor (Homo sapiens, UniProt P0DMS8)"
  Ki: "> 1000 nM"
- Compound: "CCCn1c(=O)c2[nH]c(-c3cc(NC(=O)CCCN)nn3C)nc2n(CCC)c1=O [AS10]"
  Measurement Target: "human A3 adenosine receptor (Homo sapiens, UniProt P0DMS8)"
  Ki: "> 1000 nM"
- Compound: "CCCn1c(=O)c2[nH]c(-c3ccc(OCC(=O)Nc4ccc(I)cc4)nc3)nc2n(CCC)c1=O [AS81]"
  Measurement Target: "human A3 adenosine receptor (Homo sapiens, UniProt P0DMS8)"
  Ki: "> 1000 nM"
- Compound: "CCCn1c(=O)c2[nH]c(-c3cc(NC(=O)Nc4cccc(Cl)c4)nn3C)nc2n(CCC)c1=O [AS54]"
  Measurement Target: "human A3 adenosine receptor (Homo sapiens, UniProt P0DMS8)"
  Ki: "> 1000 nM"
